test system: MS2 coat protein; assay: apparent Kd, MS2 coat protein; higher = weaker binding; RNA-MaP array; FMN 200 µM where present; settings: ligand present: flavin mononucleotide; designed as: OFF switch for flavin mononucleotide
sequences and their reported apparent Kd
measured-quantity: apparent Kd (nM)

                            sequence_string  measured_quantity  units_label  numeric_value
0  ACCUUACAUGAGGAUCACCCAUGUUAGGAUAUCUCGCUUGCGCAAUCACAGCACAAGCAGAGAAGGGACGCGGG        apparent Kd           nM           32.5
1  CGAGUUUUUGAGAAGGCAUAUUAUAUUAUACCACAUGUUUACAUGAGGAUCACCCAUGUUUCCUAUGAGGAUAUCAGAAUAUCG        apparent Kd           nM             10
2  GUCAGCUCGUGAGGAUAUACAACACUGCUUCGGCAGUCUAUUAAGAUCACAUGAGGAUCACCCAUGUAGAAGGCACGAGCUGAU        apparent Kd           nM            292
3  UGCCGUGUACAGAAGGGCGACAUGAGGAUCACCCAUGUCUCCUUGUUGGUCGUAGGAUAUGUACCGUGGCUCUCACCUGUGGGA        apparent Kd           nM           6.95
4  GGAAAGCAAGGAUAUGCAAACAAACAAACAAACAAAAGGGAACAUGAGGAUCACCCAUGUAGAAGGUGCAAACA        apparent Kd           nM           32.5
5  ACAUUUUAUGCAGGAUAUUGACAUAUAUUUAAACAAGAAGGGCAUUACAUGAGGAUCACCCAUGUUAUAUUGGUAUAUAAGUUC        apparent Kd           nM           14.8
6  UAUAUAUAGUAAGGAUAUGUAUAUAUUUUAUCAACAGAAGGUACUGACAUGAGGAUCACCCAUGUUUUAGUGUGGGCAUGUAGA        apparent Kd           nM           70.8
7  UGAUUUCAUGUAGGAUAUGCUUGGCGUAGCUACGCAGAAGGACAUGAGGAUCACCCAUGUUUUAGCGUCUGAGUAUAGAUUCUU        apparent Kd           nM           89.7
8  AAUAACAGAGGAUAUACUGUUUUAUGUGUUUGUUAUUUUGAACAUGAGGAUCACCCAUGUAGAAGGCUGAGUAA        apparent Kd           nM           28.4
